test system: MS2 coat protein; assay: apparent KD of MS2 coat protein; higher = weaker reporter binding; conditions: Eterna round: R107; input ligand: theophylline 2 mM
sequences and their reported apparent KD of MS2 coat protein
measuredQuantity: apparent KD of MS2 coat protein

* GCAUCCUAGUCGGCCGCCACUGGUACGAACACCUUCACCCGUGUGCACAUGAGGAUCACCCAUGUUAGGACCGGGACUAGGAUGC [SSTryp B #21] | 8.45 nM
* GCAUCCUAGUCGGCCGCCACUGGUAUCAACACCUUCACCCGUGUGCACAUGAGGAUCACCCAUGUUAGGACCGGGACUAGGAUGC [SSTryp B #19] | 9.55 nM
* ACAUGAGGAUCACCCAUGUACAUGAGGGAAGGAGCGGUACAUGUGCCAGGUAGGUCGCCCAACAGCAUCAGCCAUGUACAACAGG [zqwmullin] | 79.2 nM

---

sequences and their reported apparent KD of MS2 coat protein
test system: MS2 coat protein; assay: apparent KD of MS2 coat protein, switch OFF state (with FMN for OFF switches, without FMN for ON switches); designed switch direction (-1 OFF switch, 1 ON switch): -1; higher = weaker reporter binding; conditions: FMN input: 0 or 200 uM; Eterna round: R93 (includes R88 designs)
measuredQuantity: apparent KD of MS2 coat protein

• AGCUAGAGAGGAUAUACAUGGAAAAAAAAAGUCUGAUCCCUACAUGAGGAUCACCCAUGUAGAAGGCUCUGGCA [Ex2 Design 158: Sub-opt 22] = 13 nM
• AAACAACAUGAGGAUCACCCAUGUCAGGAUAUGAACGAAAUAAAAUAAAAAUAAAAGUUCAGAAGGGACGAAAA [Mat - Exclusion 1 - Eli mod - D18] = 50.1 nM
• GAAAACAGAGGAUAUACAUGAGGAUCACCCAUGUAAAAAUGUAGAAGGCUGAAAGAAAGAAGAAGGAAAGAAAA [Meechl Ex3 R2 m2] = 28.3 nM
• CUCUUGUCAGGAUAUCUAAGAAAAGAAAAGAAAGAAAAGAAAGAGAAGGGACAUGAGGAUCACCCAUGUAAGAA [EteRNA is fun!] = 42.4 nM
• AAAAAACAUGAGGAUCACCCAUGUGAGGAUAUCGGUAGUGAGGGUAUAGUGUCAAUAGUGAGAAGGCGCAUAAA [Brourd 613 Mod 13 - Jieux - Exclusion 1] = 28 nM
• AGUCGGCGAGGAUAUACAUGAGGAUCACCCAUGUGAGAGAAAAAAGUGAGUUAGACAUGUAGAAGGCGCUGACA [JL Lego Mod 8] = 26.8 nM
• UAUAGACAUGAGGAUCACCCAUGUGAGGAUAUCGGUGACUACAGGACAUCACGUACAAUGAGAAGGCACAGAAA [JR_Exc001_Sub017] = 44.2 nM
• CUUGUGUGAGGAUAUGUAAAAUGAAUAAGCAGUUCUAAAAGGCAGAAGGUACAUGAGGAUCACCCAUGUGAAAA [Inza] = 49.8 nM
• GAAAAGUCAGGAUAUACAGAAAAAAAAACGAAAAAAAAUCUGUAGAAGGGACAUGAGGAUCACCCAUGUAAAAA [Mat - Exclusion 4 - Mayanna - D122] = 37.6 nM
• GAUCAGCUAGGAUAUACAUUAAUCCGAUAUGAGAAGAAAGAACAUGAGGAUCACCCAUGUAGAAGGAGCCAGUA [Ridigeer] = 39.3 nM
• AUUAUGUAAGGAUAUGUACGAACAACAAAACAAAUAACGGUACAGAAGGUACAUGAGGAUCACCCAUGUAUAAA [May 71] = 21.4 nM

---

test system: MS2 coat protein; assay: apparent KD of MS2 coat protein, switch ON state; designed switch direction (-1 OFF switch, 1 ON switch): 1; higher = weaker reporter binding; conditions: FMN input: 0 or 200 uM; Eterna round: R93 (includes R88 designs)
measuredQuantity: apparent KD of MS2 coat protein (nM)

* AUUCCAACUAGUCAGGAUAUCAGGCGUAAGACAUGAGGAUCACCCAUGUACUUAGUACAAGUAACUGAGAAGGGACAGGGUGUAA [JR_SS002_Sub408] | 20.3
* AAUAUAUUAUUUAAGGAUAUCAUAGGAAACACAUGAGGAUCACCCAUGUGGGAAACCUGGUCGGGUGAGAAGGUGGAUAAUAUAU [Samwise Clockwise 35 - Jieux - Same State 2] | 13.8
* GAACCACAUGAGGAUCACCCAUGUCUAAGAAAUUAAGGAUAUGCACAAAAGGAAAUAACUGCAGAAGGUAAACGAA [Redo] | 25.1
* AAAAUACAUGAGGAUCACCCAUGUCCGACAAAUCAAGGAUAUGAUAGCCAAACCAGGCUGUUAGAAGGUGAAAGAA [Esesrien] | 260
* AAGAAACAUGAGGAUCACCCAUGUAAAUAAAUCUCAGGAUAUCGUACAUGGAAGAUCUAACGAGAAGGGAGAAGAA [Pariah 1 (MS2 Riboswitches - Same State 1)] | 85.7
* AAAAGACAUGAGGAUCACCCAUGUAAAGACAUAGGAGGAUAUGUCGUGAAAAAAGACUUGGCAGAAGGCCUUUGUC [SS1 - 46] | 21
* GAAAAAAAAAGGCAGGAUAUCCAAAAAAAAACAUGAGGAUCACCCAUGUAAAAAAAAAAAAAAUGGGAGAAGGGCCAAAAAAAAA [Mat - Same State 2 - Mod - 151] | 25.5
* AAGAAACAUGAGGAUCACCCAUGUGGAAAUAUGGGAGGAUAUACAAGGACGUAAGUCAAGGUAGAAGGCCUAAGAA [Mat - Same State 1 - Meechl mod - D138] | 21.5
* GGGAGGAAGAGAGAGGAUAUCCAAAGGAAAACAUGAGGAUCACCCAUGUAAAAGGUAGGAAAUUGGGAGAAGGCUCAAAAGAGGC [salish99-ss2-042] | 19.4
* AUAAAAUACUGUGAGGAUAUCCAUAAUAAAACAUGAGGAUCACCCAUGUGUAGAUAAUAAUAAUGGGAGAAGGCACAUAAUAAAU [SS2 M41] | 24.2
* AACAAUCUAUCUGAGGAUAUCAAGUCAAAGACAUGAGGAUCACCCAUGUGCAGGAAAACUGCACUUGAGAAGGCAGAUAGAUUGA [SS2: 1109] | 12.3
* GAUAAACAUGAGGAUCACCCAUGUAGAAAUAUGGGAGGAUAUACAAAGACGAAAGUCAAAGUAGAAGGCCUAAAAG [77%, Mat - Mod of Eli - With 1 more U's] | 24.4
* AACAAUCUAUCUGAGGAUAUCAUGUAAAAGACAUGAGGAUCACCCAUGUAGCAGGAAACUGCACAUGAGAAGGCAGAUAGAUUGA [SS2: 1124] | 15.9
* AAAGACAUGGUGCAGGAUAUAUUAAUAGUCACAUGAGGAUCACCCAUGUUCAUAUAUAUGAACGAGUAGAAGGGCGAUGAAAAAA [SameState2 Malc#6] | 98
* AAUCCAAAUAGUCAGGAUAUCAAAAAUAAGACAUGAGGAUCACCCAUGUACUAAGUAAAAGUAAAUGAGAAGGGACAGGGUGAAA [JR_SS002_Sub402] | 138
* ACUAUACAUGAGGAUCACCCAUGUUAGCUGGGCGAAGGAUAUGUAGAUGGAUAAAAAUAUGCAGAAGGUCGAUAAC [JR_SS001_Sub210] | 39.5
* AAUUGACAUGAGGAUCACCCAUGUAGGAUUAUGGGAGGAUAUACAAAGACGAGAGUCAGAGUAGAAGGCCUAGGAA [salish99-ss1-146] | 25

---

tested on: MS2 coat protein; test: apparent KD of MS2 coat protein; higher = weaker reporter binding; settings: Eterna round: R107; input ligand: none
sequences and their reported apparent KD of MS2 coat protein
measuredQuantity: apparent KD of MS2 coat protein

- AACGUAUACAGAAGGAGCGUGAUUUAUAAUUCUUUAAAAUAUACAUGAGGAUCACCCAUGUCACAGGUAGGUCGCUGUAUUCGUA [JR_ExcArginiB_Sub024]: 35.7 nM
- GGCGCGCGCCAACAUGAGGAUCACCCAUGUCGAGGACCGGUACGGCCGCCACUCGAACGAGUGAAGCGCGCGCGCGGGCGACCGC [Saa]: 39.7 nM
- UUUUUCGUAGGUUAUAGUUUAGAAACUGAAGGAGCGUGGUAAUACACAGGUAGGUCGCAGAUUUUACAUGAGGAUCACCCAUGUU [JR_ExcArginiA_Sub013]: 24.1 nM
- UCGCCCAGGAAGGAUUCCUGGGAUAUGGAAGGAGCGCUGAUGCCAGCAGGUAGGUCGCCAACGGACAUGAGGAUCACCCAUGUAC [Same State - Arginine A (Freestyle 8)]: 19.9 nM
- CCUUACGUUGGGCAGCCAGUUCGAAGUGAUACCAGUCACAAAAGUGACCCUUGGCAGCACCGCACAUGAGGAUCACCCAUGUCUA [SSThA NP+V+V2 #8 Same Structure]: 34.8 nM
- GAGUAGAGGACGGCCGCCACUGAACAUGAGGAUCACCCAUGUCGUGAUCCGUUGCCUGAAGAAGAUAGGACCGGGUCAUGUGCUC [Exclusion Tryptophan B GF 20]: 28.6 nM
- GGACUAACCAGAAGGAGCGAUACGCAGAAACUGCAAUUUCCUCUACACGAGGAUCACCCGUGUCAGGUAGGUCGCUGGUUAGUCG: 26.9 nM
